assay: APR_HepG2_MicrotubuleCSK_24hr: Apredica 24-hour HepG2 Assay for Microtubule CSK Stabilty (AID 2282909); settings: HepG2 microtubule cytoskeleton imaging, actives raise or lower the signal
The source made the active and inactive calls. Rule for the calls: active = hit-call score of the fitted dose curve at least 0.9, where 1 is the maximum; inactive = score below 0.9.
Please state which outcome applies, choosing from active, inactive

Below, 8 molecules whose answers are already recorded.
{"columns": ["MOLECULE", "CATEGORY LABEL"],
 "data": [
  ["COCC(C)OCC(C)O (stereo not drawn)", "inactive"],
  ["O=[N+]([O-])c1ccc(O)cc1", "inactive"],
  ["Cc1cc(C)c(O)c(C)c1", "inactive"],
  ["OCCC(F)(F)C(F)(F)C(F)(F)C(F)(F)C(F)(F)C(F)(F)F", "inactive"],
  ["CC(=O)NC1(c2cccc(F)c2)CCN(CC[C@@]2(c3ccc(Cl)c(Cl)c3)CN(c3ccccc3)C(=O)CO2)CC1", "active"],
  ["CCC(=C(c1ccc(O)cc1)c1ccc(OCCN(C)C)cc1)c1ccccc1", "inactive"],
  ["C#C[C@]1(O)CC[C@H]2[C@@H]3CCC4=CC(=O)CC[C@@H]4[C@H]3CC[C@@]21C", "inactive"],
  ["CCc1nn(C2CCCCC2)c2cc(C3(C#N)CCC(C(=O)O)CC3)ccc12 (stereo not drawn)", "inactive"]
]}

# input Tell me the assay call for N#C[C@@H]1CC(F)(F)CN1C(=O)CNC1CC2CCC(C1)N2c1ncccn1 (stereo partly drawn) please.
# output inactive

# input Please share the test call associated with "CC(C)(C)c1ccc(O)c(C(C)(C)C)c1" .
# output inactive

# input Answer briefly: the call reported for "C=C(C)C(=O)OCCC(F)(F)C(F)(F)C(F)(F)C(F)(F)C(F)(F)C(F)(F)F" in this assay.
# output inactive

---

assay: APR_HepG2_MitoMass_24hr: Apredica 24-hour HepG2 Assay for Mitochondrial Mass (AID 2282912); settings: high-content imaging, actives raise or lower the signal
Activity calls are given as the source filed them. The calls were made as follows: active = hit-call score of the fitted dose curve at least 0.9, where 1 is the maximum; inactive = score below 0.9.
Respond only with the outcome that fits, drawn from active, inactive

{"columns": ["STRUCTURE STRING", "CATEGORY LABEL"],
 "data": [
  ["CN(C)C=O", "inactive"],
  ["O=C(/C=C/c1ccc(O)cc1)CC(=O)/C=C/c1ccc(O)cc1", "active"],
  ["Oc1cc2ccccc2c2ccccc12", "active"],
  ["NC(=O)N(O)[C@@H]1C=C[C@H](Oc2cccc(Oc3ccc(F)cc3)c2)C1", "inactive"],
  ["CC[C@H](C)[C@@H](C(=O)O)n1sc2ccccc2c1=O", "inactive"],
  ["CCN(CC)CCNc1ccc(CNC=O)c2sc3ccc(OC)cc3c(=O)c12", "active"]
]}

# input I would be grateful if you could indicate the recorded call for "CCCCCCC(=O)O" .
# output inactive

---

experiment: ATG_EGR_CIS: Attagene CIS-FACTORIAL HepG2 Assay for human Early Growth Response 1 (EGR1) (AID 2282938); conditions: HepG2 Attagene CIS-FACTORIAL EGR reporter mRNA; actives raise or lower the signal
The source made the active and inactive calls. Rule for the calls: active = hit-call score of the fitted dose curve at least 0.9, where 1 is the maximum; inactive = score below 0.9.
# valid calls are true (active), false (inactive); nothing else

{"columns": ["MOLECULE", "CATEGORY LABEL"],
 "data": [
  ["Nc1cccc2c(N)cccc12", "false"],
  ["CCCCC(CC)COC(=O)CCCCC(=O)OCC(CC)CCCC (stereo not drawn)", "false"],
  ["COc1cc(CCC(=O)CC(=O)CCc2ccc(O)c(OC)c2)ccc1O", "false"],
  ["CCc1ccc(CCOc2ccc(CC3SC(=O)NC3=O)cc2)nc1 (stereo not drawn)", "false"],
  ["c1ccc2c(c1)Cc1ccccc1-2", "false"]
]}

# input Dear all, I need the recorded test outcome for NC(=O)N1C(=O)C(C(=O)c2cc(Cl)cs2)c2cc(F)c(Cl)cc21 (stereo not drawn) , thank you.
# output false

# input // outcome(item) with item = "O=C(O)c1ccccc1C(c1ccc(O)cc1)c1ccc(O)cc1"
# output false

# input Tell me the assay call for "CCCCCCCCC(=O)O" please.
# output false

# input What call does the record list for "O=C(/C=C/c1ccc(O)cc1)CC(=O)/C=C/c1ccc(O)cc1" ?
# output true

# input Which outcome was assigned to "CCCCCCCC(=O)O" in this test?
# output false

# input What is the recorded call for this molecule in the test? "COc1ccc([N+](=O)[O-])cc1N"
# output false

# input Please share the test call associated with "FC(F)(I)C(F)(F)C(F)(F)C(F)(F)C(F)(F)C(F)(F)I" .
# output true

# input Look up the recorded call for "CCCCCCC(=O)O" in this test.
# output false
